meta.source: the supplement of paper PMC6897291

test system: U-2932; experiment: growth inhibition by drug alone (1 - RLU/untreated control) (fraction); higher = stronger inhibition; settings: 1000 nM; time (day): 4; 177Lu-lilotomab satetraxetan 0 ug/ml
Experimental Readout: growth inhibition by drug alone

>>> reported("Cc1ccc([C@@H]2O[C@H](CO)[C@@H](O)[C@H](O)[C@H]2O)cc1Cc1ccc(-c2ccc(F)cc2)s1 [Canagliflozin]")
0.00599
>>> reported("COC(=O)Nc1nc2cc(C(=O)c3cccs3)ccc2[nH]1 [Nocodazole]")
0.967
>>> reported("Nc1nc(Cl)nc2c1ncn2[C@H]1C[C@H](O)[C@@H](CO)O1 [Cladribine]")
0.966
>>> reported("CN1C(=O)C(Cc2c[nH]c3ccccc23)NC1=S (centres undefined) [Necrostatin-1]")
-0.0746
>>> reported("Cc1c(C(=O)Nc2ccc(N3C[C@@H](C)O[C@@H](C)C3)nc2)cccc1-c1ccc(OC(F)(F)F)cc1 [LDE225 (NVP-LDE225, Erismodegib)]")
0.0478
>>> reported("Cn1c(=O)c(F)c(Nc2ccc(I)cc2F)c2c(=O)n(C[C@@H](O)CO)cnc21")
0.169
>>> reported("Cc1ccc(C(=O)N(CCCN)[C@@H](c2nc3cc(Cl)ccc3c(=O)n2Cc2ccccc2)C(C)C)cc1")
0.968
>>> reported("CNCc1ccc(-c2[nH]c3cc(F)cc4c3c2CCNC4=O)cc1")
0.0462
>>> reported("Nc1nc(OCc2cc(Br)cs2)c2[nH]cnc2n1 [Lomeguatrib]")
-0.011
